B1: Protein S100-G, residues 1 to 79; numbered along this chain, P02633 (parent)
chain: MSAKKSPEELKGIFEKYAAKEGDPNQLSKEELKLLLQTEFPSLLKGPSTLDELFEELDKNGDGEVSFEEFQVLVKKISQ

- Variants of: B1
- ASSAY DETAILS: abundance fitness (aPCA) (normalised: wild type 0, dead -1); higher = more abundant; growth selection in yeast, the domain comes from the species named
- RUN PARAMETERS: Bos taurus
If the reported abundance fitness equals or exceeds -0.06, assign yes. If not, assign no.

>  <SEQUENCE CODE>
MSAKKSPEELKGIFEKYAAKEGDPNQLSKEELKLLLQTEFPSLLKGPSTLDELHEELDKNGDGEVSFEEFQVLVKKISQ [F54H]

>  <LABEL VALUE>
yes

$$$$

Has MSAKKSPEELKGIFMKYAAKEGDPNQLSKEELKLLLQTEFPSLLKGPSTLDELFEELDKNGDGEVSFEEFQVLVKKISQ [E15M] a recorded abundance fitness greater than or equal to -0.06?
yes

Has MSAKKSPEELKGIFEKYAAKEGDPNQLSKEALKLLLQTEFPSLLKGPSTLDELFEELDKNGDGEVSFEEFQVLVKKISQ [E31A] a recorded abundance fitness greater than or equal to -0.06?
no

Has MSAKKSPEELKGIFEKYAAKEGDPNQLSKEELKLLLQTEFPSLLVGPSTLDELFEELDKNGDGEVSFEEFQVLVKKISQ [K45V] a recorded abundance fitness greater than or equal to -0.06?
yes

Has MSAKKSPEELKGIFEKYAAKEGDPNQLSKEELKLLLQTEFPSLLKGPSTLDELFEELDKNGDGEVSFEEFQVLVTKISQ [K75T] a recorded abundance fitness greater than or equal to -0.06?
no

Has MQAKKSPEELKGIFEKYAAKEGDPNQLSKEELKLLLQTEFPSLLKGPSTLDELFEELDKNGDGEVSFEEFQVLVKKISQ [S2Q] a recorded abundance fitness greater than or equal to -0.06?
yes
